Listed next: entries and their corresponding zone of inhibition at 100 µg/disc.
Tested on: Salmonella paratyphi
Test: Antibacterial activity against Salmonella paratyphi assessed as zone of inhibition at 100 ug/well measured after 24 hrs by agar well diffusion method
Type: functional, Salmonella enterica subsp. enterica serovar Paratyphi A
Details: Salmonella enterica, read-out: DIZ
READOUT LABEL: zone of inhibition at 100 µg/disc (mm)

>>> observed_result("CC1(C)O[C@H]2O[C@@H]3COB(c4ccc(/C=N/c5ccc(Cl)cc5)cc4)O[C@@H]3[C@H]2O1")
13
>>> observed_result("CC1(C)O[C@H]2O[C@@H]3COB(c4cccc(/N=C/c5ccccc5O)c4)O[C@@H]3[C@H]2O1")
13
>>> observed_result("CC1(C)O[C@H]2O[C@@H]3COB(c4cccc(/N=C/c5ccc(Br)cc5O)c4)O[C@@H]3[C@H]2O1")
14
>>> observed_result("Cc1ccc(/N=C/c2cccc(B3OC[C@H]4O[C@@H]5OC(C)(C)O[C@@H]5[C@H]4O3)c2)cc1")
12
>>> observed_result("Cc1ccc(/N=C/c2cccc(B(O)O)c2)cc1")
0
>>> observed_result("CC1(C)O[C@H]2O[C@@H]3COB(c4cccc(C=O)c4)O[C@@H]3[C@H]2O1")
18
>>> observed_result("CC1(C)O[C@H]2O[C@@H]3COC(c4cccc(/C=N/c5ccc(F)cc5)c4)O[C@@H]3[C@H]2O1 (stereo not given in full)")
0
>>> observed_result("Cc1ccccc1B1OC[C@H]2O[C@@H]3OC(C)(C)O[C@@H]3[C@H]2O1")
6
>>> observed_result("CC1(C)O[C@H]2O[C@@H]3COB(c4ccc(/C=N/c5ccc(F)cc5)cc4)O[C@@H]3[C@H]2O1")
22
>>> observed_result("CC1(C)O[C@H]2O[C@@H]3COB(c4ccc(/C=N/c5ccc(Br)cc5)cc4)O[C@@H]3[C@H]2O1")
24
>>> observed_result("COc1ccc(/N=C/c2cccc(B3OC[C@H]4O[C@@H]5OC(C)(C)O[C@@H]5[C@H]4O3)c2)cc1")
21
>>> observed_result("CC1(C)O[C@H]2O[C@@H]3COC(c4ccc(/C=N\\c5ccc(F)cc5)cc4)O[C@@H]3[C@H]2O1 (stereo not given in full)")
0
>>> observed_result("CC1(C)O[C@H]2O[C@@H]3COB(c4cccc(/C=N/c5ccc(Cl)cc5)c4)O[C@@H]3[C@H]2O1")
13
>>> observed_result("COc1ccc(/N=C/c2ccc(B3OC[C@H]4O[C@@H]5OC(C)(C)O[C@@H]5[C@H]4O3)cc2)cc1")
13
>>> observed_result("OB(O)c1ccc(/C=N/c2ccc(F)cc2)cc1")
0
